Assay type: in vivo, human
Conditions: both, human, plasma, oral, 20 mg
MEASURED ENDPOINT: half-life (h)
Could you give me the number in h? Just the number is fine.

So, Br.Cc1ccc(Sc2ccccc2N2CCNCC2)c(C)c1 ? Its half-life was 64.2

* * *

Format: in vivo, human
Settings: both, human, plasma, oral, 20 mg
MEASURED ENDPOINT: Tmax (h)
Could you give me the number in h? Just the number is fine.

So, Br.Cc1ccc(Sc2ccccc2N2CCNCC2)c(C)c1 [vortioxetine] ? Its Tmax was 8

* * *

Assay type: in vivo, human
Settings: both, human, plasma, po, 10 mg
MEASURED ENDPOINT: Vd/F
Kindly report the value followed by its unit.

So, Br.Cc1ccc(Sc2ccccc2N2CCNCC2)c(C)c1 [vortioxetine] ? Its Vd/F was 2770 L

* * *

Format: in vivo, human
Details: both, human, plasma, po, 10 mg
MEASURED ENDPOINT: half-life (h)
Could you give me the number in h? Just the number is fine.

So, Br.Cc1ccc(Sc2ccccc2N2CCNCC2)c(C)c1 ? Its half-life was 60.6

* * *

Type: in vivo, human
Settings: both, human, plasma, po, 20 mg
MEASURED ENDPOINT: Vd/F (L)
Could you give me the number in L? Just the number is fine.

So, Br.Cc1ccc(Sc2ccccc2N2CCNCC2)c(C)c1 ? Its Vd/F was 3290

* * *

Type: in vivo, human
Details: both, human, plasma, po, 5 mg
MEASURED ENDPOINT: AUC(0-t) (ng·h/mL)
Could you give me the number in ng·h/mL? Just the number is fine.

So, Br.Cc1ccc(Sc2ccccc2N2CCNCC2)c(C)c1 ? Its AUC(0-t) was 157

* * *

Assay type: in vivo, human
Details: both, human, plasma, oral, 10 mg
MEASURED ENDPOINT: half-life (h)
Could you give me the number in h? Just the number is fine.

So, Br.Cc1ccc(Sc2ccccc2N2CCNCC2)c(C)c1 ? Its half-life was 58.8

* * *

Format: in vivo, human
Details: both, human, plasma, oral, 10 mg
MEASURED ENDPOINT: Tmax (h)
Could you give me the number in h? Just the number is fine.

So, Br.Cc1ccc(Sc2ccccc2N2CCNCC2)c(C)c1 [vortioxetine] ? Its Tmax was 8

* * *

Assay type: in vivo, human
Details: both, human, plasma, po, 5 mg
MEASURED ENDPOINT: AUC(0-inf) (ng·h/mL)
Could you give me the number in ng·h/mL? Just the number is fine.

So, Br.Cc1ccc(Sc2ccccc2N2CCNCC2)c(C)c1 [vortioxetine] ? Its AUC(0-inf) was 188

* * *

Type: in vivo, human
Settings: both, human, plasma, oral, 10 mg
MEASURED ENDPOINT: AUC(0-t)
Kindly report the value followed by its unit.

So, Br.Cc1ccc(Sc2ccccc2N2CCNCC2)c(C)c1 ? Its AUC(0-t) was 344 ng·h/mL

* * *

Type: in vivo, human
Details: both, human, plasma, oral, 20 mg
MEASURED ENDPOINT: Vd/F (L)
Could you give me the number in L? Just the number is fine.

So, Br.Cc1ccc(Sc2ccccc2N2CCNCC2)c(C)c1 ? Its Vd/F was 3370

* * *

Format: in vivo, human
Settings: both, human, plasma, po, 20 mg
MEASURED ENDPOINT: AUC(0-t) (ng·h/mL)
Could you give me the number in ng·h/mL? Just the number is fine.

So, Br.Cc1ccc(Sc2ccccc2N2CCNCC2)c(C)c1 ? Its AUC(0-t) was 561

* * *

Type: in vivo, human
Conditions: both, human, plasma, oral, 5 mg
MEASURED ENDPOINT: Vd/F (L)
Could you give me the number in L? Just the number is fine.

So, Br.Cc1ccc(Sc2ccccc2N2CCNCC2)c(C)c1 ? Its Vd/F was 2500

* * *

Format: in vivo, human
Settings: both, human, plasma, po, 10 mg
MEASURED ENDPOINT: Cmax (ng/mL)
Could you give me the number in ng/mL? Just the number is fine.

So, Br.Cc1ccc(Sc2ccccc2N2CCNCC2)c(C)c1 ? Its Cmax was 4.6

* * *

Assay type: in vivo, human
Conditions: both, human, plasma, po, 5 mg
MEASURED ENDPOINT: Cmax (ng/mL)
Could you give me the number in ng/mL? Just the number is fine.

So, Br.Cc1ccc(Sc2ccccc2N2CCNCC2)c(C)c1 ? Its Cmax was 1.87

* * *

Type: in vivo, human
Settings: both, human, plasma, oral, 5 mg
MEASURED ENDPOINT: AUC(0-t)
Kindly report the value followed by its unit.

So, Br.Cc1ccc(Sc2ccccc2N2CCNCC2)c(C)c1 ? Its AUC(0-t) was 175 ng·h/mL

* * *

Format: in vivo, human
Conditions: both, human, plasma, po, 20 mg
MEASURED ENDPOINT: half-life (h)
Could you give me the number in h? Just the number is fine.

So, Br.Cc1ccc(Sc2ccccc2N2CCNCC2)c(C)c1 [vortioxetine] ? Its half-life was 64.3

* * *

Format: in vivo, human
Details: both, human, plasma, oral, 5 mg
MEASURED ENDPOINT: half-life (days)
Could you give me the number in days? Just the number is fine.

So, Br.Cc1ccc(Sc2ccccc2N2CCNCC2)c(C)c1 [vortioxetine] ? Its half-life was 2.5

* * *

Assay type: in vivo, human
Settings: both, human, plasma, po, 10 mg
MEASURED ENDPOINT: AUC(0-t) (ng·h/mL)
Could you give me the number in ng·h/mL? Just the number is fine.

So, Br.Cc1ccc(Sc2ccccc2N2CCNCC2)c(C)c1 ? Its AUC(0-t) was 255

* * *

Type: in vivo, human
Conditions: both, human, plasma, oral, 10 mg
MEASURED ENDPOINT: Vd/F (L)
Could you give me the number in L? Just the number is fine.

So, Br.Cc1ccc(Sc2ccccc2N2CCNCC2)c(C)c1 [vortioxetine] ? Its Vd/F was 3290

The measured values listed here are drawn from paper PMC5973995.
